- System: U2932 parental
- test summary: cell proliferation relative to vehicle (% of vehicle); higher = less growth inhibition
- test context: 500 nM; 72 h
Structures can show the parent of a compound that is named as a salt.
# cell proliferation annotations
Returns: the value as a bare number; no unit string appended.

Please review the entries below; each comes with its answer.
Query :: For O=C(O)CCCc1ccc(N(CCCl)CCCl)cc1 [Chloroambucil] , write its cell proliferation.
Result :: 98.7

Query :: For COc1ccc(C[C@H]2NC[C@H](O)[C@H]2OC(C)=O)cc1 [Anisomycin] , write its cell proliferation.
Result :: 20.5

Query :: For COc1cc2c(cc1OC)C1CC(=O)C(CC(C)C)CN1CC2 (stereo not given) [Tetrabenazine (Xenazine)] , write its cell proliferation.
Result :: 93.2

Query :: For O=S(=O)(CC1CS1)c1ccc(Oc2ccccc2)cc1 (stereo not given) , write its cell proliferation.
Result :: 99.7

Consider now this further compound.
Query :: For Cn1c(CCCC(=O)O)nc2cc(N(CCCl)CCCl)ccc21 [Bendamustine HCl] , write its cell proliferation.
Result :: 90.2

* * *

# cell proliferation annotations
- System: U2932 TK216-resistant clone 3
- test summary: cell proliferation relative to vehicle (% of vehicle); higher = less growth inhibition
- test context: 50 nM; 72 h
Structures can show the parent of a compound that is named as a salt.

Query :: Fill: cell proliferation (U2932 TK216-resistant clone 3) for this compound O=P1(NCCCl)OCCCN1CCCl (stereo not given) [Ifosfamide]
Result :: 102

Continuing:
Query :: Fill: cell proliferation (U2932 TK216-resistant clone 3) for this compound O=C(O)C(=O)c1cn(Cc2ccccc2)c2ccc(-c3ccc(OC(F)(F)F)cc3)cc12
Result :: 100

Query :: Fill: cell proliferation (U2932 TK216-resistant clone 3) for this compound CC(O)(CS(=O)(=O)c1ccc(F)cc1)C(=O)Nc1ccc(C#N)c(C(F)(F)F)c1 (stereo not given) [Bicalutamide]
Result :: 103

Query :: Fill: cell proliferation (U2932 TK216-resistant clone 3) for this compound Cn1c(CCCC(=O)O)nc2cc(N(CCCl)CCCl)ccc21 [Bendamustine HCl]
Result :: 102

Query :: Fill: cell proliferation (U2932 TK216-resistant clone 3) for this compound O=C(O)CCCc1ccc(N(CCCl)CCCl)cc1
Result :: 98.4

* * *

# cell proliferation annotations
- Test system: U2932 TK216-resistant clone 3
- test summary: cell proliferation relative to vehicle (% of vehicle); higher = less growth inhibition
- test context: 500 nM; 72 h
Where a name gives a salt, the structure may show the parent alone.
Returns: the value as a bare number; no unit string appended.

Please review the entries below; each comes with its answer.
Query :: For CC(O)(CS(=O)(=O)c1ccc(F)cc1)C(=O)Nc1ccc(C#N)c(C(F)(F)F)c1 (stereo unspecified) [Bicalutamide] , write its cell proliferation.
Result :: 97.8

Query :: For N[C@@H]1C[C@H]1c1ccccc1 [Tranylcypromine (2-PCPA) HCl] , write its cell proliferation.
Result :: 102

Continuing:
Query :: For O=C(O)C(=O)c1cn(Cc2ccccc2)c2ccc(-c3ccc(OC(F)(F)F)cc3)cc12 , write its cell proliferation.
Result :: 98.5

Query :: For Cn1cc(C2=C(c3cn(C4CCN(Cc5ccccn5)CC4)c4ccccc34)C(=O)NC2=O)c2ccccc21 , write its cell proliferation.
Result :: 97.1

Query :: For O=P1(NCCCl)OCCCN1CCCl (stereo unspecified) [Ifosfamide] , write its cell proliferation.
Result :: 103

Query :: For Cn1c(CCCC(=O)O)nc2cc(N(CCCl)CCCl)ccc21 [Bendamustine HCl] , write its cell proliferation.
Result :: 102
